Task for the reader: assign each of the following molecules its reported inhibition at 10 µM.
Tested on: DU-145
testProtocol: NCI one-dose SRB growth assay
Type: cell-based
conditionDetails: Homo sapiens; DU-145 (Prostate Cancer), 10^-5 M, 48 h; read-out: % Growth Inhibition (GI %)
Return type: number; implicit unit %.

CCn1cc(C(=O)O)c(=O)c2cc(F)c(N3CCN(S(=O)(=O)c4ccc(Cl)cc4)CC3)cc21 has a reported inhibition at 10 µM of 68.3

Cc1cc(C)c(S(=O)(=O)N2CCN(c3cc4c(cc3F)c(=O)c(C(=O)O)cn4C3CC3)CC2)c(C)c1 has a reported inhibition at 10 µM of 28.6

CCn1cc(C(=O)O)c(=O)c2cc(F)c(N3CCN(S(=O)(=O)c4cccc5ccccc45)CC3)cc21 has a reported inhibition at 10 µM of 81.1

CCn1cc(C(=O)O)c(=O)c2cc(F)c(N3CCN(S(=O)(=O)c4ccc(Cl)cc4Cl)CC3)cc21 has a reported inhibition at 10 µM of 88.4

O=C(O)c1cn(C2CC2)c2cc(N3CCN(S(=O)(=O)c4ccc(Cl)c(Cl)c4)CC3)c(F)cc2c1=O has a reported inhibition at 10 µM of 82.8

O=c1[nH]cc(F)c(=O)[nH]1 [Compound 5-FU, 5-fluorouracil, reference compound] has a reported inhibition at 10 µM of 35.5

----------
Test system: renal cancer
Friendly reminder: GI50 below 4 µM is true, at or above is false.

A record lists O=C(O)c1cn(C2CC2)c2cc(N3CCN(S(=O)(=O)c4ccc(Cl)c(Cl)c4)CC3)c(F)cc2c1=O . Is its GI50 below 4 µM?
true

A record lists O=c1[nH]cc(F)c(=O)[nH]1 [Compound 5-FU, 5-fluorouracil, reference compound] . Is its GI50 below 4 µM?
false

A record lists CCn1cc(C(=O)O)c(=O)c2cc(F)c(N3CCN(S(=O)(=O)c4ccc(Cl)cc4Cl)CC3)cc21 . Is its GI50 below 4 µM?
true

A record lists CCn1cc(C(=O)O)c(=O)c2cc(F)c(N3CCN(S(=O)(=O)c4ccc(Cl)cc4)CC3)cc21 . Is its GI50 below 4 µM?
true

A record lists CCn1cc(C(=O)O)c(=O)c2cc(F)c(N3CCN(S(=O)(=O)c4cccc5ccccc45)CC3)cc21 . Is its GI50 below 4 µM?
true

A record lists Cc1cc(C)c(S(=O)(=O)N2CCN(c3cc4c(cc3F)c(=O)c(C(=O)O)cn4C3CC3)CC2)c(C)c1 . Is its GI50 below 4 µM?
true

----------
This document collects GI50 values reported for MCF7.
Return type: number; implicit unit nM.

O=C(O)c1cn(C2CC2)c2cc(N3CCN(S(=O)(=O)c4ccc(Cl)c(Cl)c4)CC3)c(F)cc2c1=O has a reported GI50 of 2840

CCn1cc(C(=O)O)c(=O)c2cc(F)c(N3CCN(S(=O)(=O)c4ccc(Cl)cc4Cl)CC3)cc21 has a reported GI50 of 2950

CCn1cc(C(=O)O)c(=O)c2cc(F)c(N3CCN(S(=O)(=O)c4cccc5ccccc45)CC3)cc21 has a reported GI50 of 2720

CCn1cc(C(=O)O)c(=O)c2cc(F)c(N3CCN(S(=O)(=O)c4ccc(Cl)cc4)CC3)cc21 has a reported GI50 of 2970

Cc1cc(C)c(S(=O)(=O)N2CCN(c3cc4c(cc3F)c(=O)c(C(=O)O)cn4C3CC3)CC2)c(C)c1 has a reported GI50 of 2590
